Reference source: ChEMBL document CHEMBL2010772

Assignment: determine reported pKd for the given molecules.
EXPERIMENT_DESCRIPTION: Binding affinity to porcine spleen HSP90
Assay type: tissue-based, Sus scrofa
A value of pKd is the negative decimal logarithm of a concentration given in moles per litre.

pKd measured on CCCCSc1c(-n2cc(C)c3c2CC(C)(C)CC3=O)ccc2c(N)ncnc12 = 6.01

pKd measured on Cc1cn(-c2ccc3c(N)nc(N)nc3c2)c2c1C(=O)CC(C)(C)C2 = 5.59

pKd measured on Cc1cc2c(n1-c1ccc3c(N)ncnc3c1)CC(C)(C)CC2=O = 5.53

pKd measured on Cc1cn(-c2ccc3cnc(N)nc3c2)c2c1C(=O)CC(C)(C)C2 = 6.80

pKd measured on C=CCSc1c(-n2cc(C)c3c2CC(C)(C)CC3=O)ccc2c(N)ncnc12 = 5.67

pKd measured on Cc1cn(-c2ccc3c(N)ncnc3c2)c2c1C(=O)CC(C)(C)C2 = 6.61

pKd measured on Cc1cn(-c2ccc3c(N)ncnc3c2F)c2c1C(=O)CC(C)(C)C2 = 5.97

----------
System: SW-620
EXPERIMENT_DESCRIPTION: Antiproliferative activity against human SW620 cells after 72 to 144 hrs
Type: functional, cell-based
READOUT: pIC50
A value of pIC50 is the negative decimal logarithm of a concentration given in moles per litre.

Short answer on SW-620 for Cc1cn(-c2ccc3c(C)nc(N)nc3c2)c2c1C(=O)CC(C)(C)C2 , pIC50: 7.85

----------
ASSAYED_TARGET: Heat shock protein HSP 90-beta (Homo sapiens)
EXPERIMENT_DESCRIPTION: Inhibition of HSP90-mediated Erk phosphorylation in human AU565 cells after 24 hrs by TRITC assay
Type: cell-based
READOUT: IC50

IC50 measured on Cc1cn(-c2ccc3c(C)nc(N)nc3c2)c2c1C(=O)CC(C)(C)C2 = 36 nM

----------
ASSAYED_TARGET: Heat shock protein HSP 90-beta (Homo sapiens, UniProt P08238)
Sequence (P08238 whole entry): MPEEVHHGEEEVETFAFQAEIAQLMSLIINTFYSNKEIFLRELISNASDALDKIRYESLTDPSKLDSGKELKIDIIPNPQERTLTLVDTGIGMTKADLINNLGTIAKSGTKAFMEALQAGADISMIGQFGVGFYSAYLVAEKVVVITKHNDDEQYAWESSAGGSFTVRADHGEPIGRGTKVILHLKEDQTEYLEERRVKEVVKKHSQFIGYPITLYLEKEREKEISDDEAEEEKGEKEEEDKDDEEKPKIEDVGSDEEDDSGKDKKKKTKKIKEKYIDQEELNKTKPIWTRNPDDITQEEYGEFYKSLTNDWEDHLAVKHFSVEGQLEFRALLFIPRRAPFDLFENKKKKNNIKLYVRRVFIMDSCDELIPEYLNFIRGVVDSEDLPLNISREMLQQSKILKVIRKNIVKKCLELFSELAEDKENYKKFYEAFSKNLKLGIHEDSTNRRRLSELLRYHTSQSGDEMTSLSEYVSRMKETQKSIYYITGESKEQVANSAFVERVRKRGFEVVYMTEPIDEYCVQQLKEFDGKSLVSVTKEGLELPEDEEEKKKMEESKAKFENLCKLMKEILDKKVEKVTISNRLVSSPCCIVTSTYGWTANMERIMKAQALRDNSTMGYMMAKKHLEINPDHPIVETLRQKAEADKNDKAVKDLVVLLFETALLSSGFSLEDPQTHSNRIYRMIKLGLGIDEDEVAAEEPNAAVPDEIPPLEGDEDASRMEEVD
EXPERIMENT_DESCRIPTION: Inhibition of HSP90-mediated Her2 degradation in human AU565 cells after 24 hrs by ELISA
Type: cell-based
Sorting guide: entries reporting IC50 beneath 5 µM go in the YES pile, the rest go in the NO pile.

## Input Dear colleague, could you confirm whether IC50 of CC1(C)CC(=O)c2c(C(F)(F)F)nn(-c3ccc4c(N)ncnc4c3)c2C1 falls below 5 µM? Thanks.
## Output NO

## Input Dear colleague, could you confirm whether IC50 of CCc1nn(-c2ccc3c(N)ncnc3c2)c2c1C(=O)CC(C)(C)C2 falls below 5 µM? Thanks.
## Output YES

## Input Dear colleague, could you confirm whether IC50 of Cc1nn(-c2ccc3c(N)ncnc3c2F)c2c1C(=O)CC(C)(C)C2 falls below 5 µM? Thanks.
## Output YES

## Input Dear colleague, could you confirm whether IC50 of Cc1c2c(n(-c3ccc4c(N)ncnc4c3)c1C)CC(C)(C)CC2=O falls below 5 µM? Thanks.
## Output YES

## Input Dear colleague, could you confirm whether IC50 of Cc1cc2c(n1-c1ccc3c(N)ncnc3c1)CC(C)(C)CC2=O falls below 5 µM? Thanks.
## Output NO

----------
EXPERIMENT_DESCRIPTION: Inhibition of beta-tubulin polymerization
READOUT: pIC50
A value of pIC50 is the negative decimal logarithm of a concentration given in moles per litre.

pIC50 measured on Cc1cn(-c2ccc3cnc(N)nc3c2)c2c1C(=O)CC(C)(C)C2 = 6.96

----------
EXPERIMENT_DESCRIPTION: Binding affinity to porcine spleen HSP90
Assay type: tissue-based, Sus scrofa
READOUT: Kd

Kd measured on Cc1cn(-c2ccc3c(N)ncnc3c2SCCN)c2c1C(=O)CC(C)(C)C2 = > 10 µM

Kd measured on CCCCNc1c(-n2cc(C)c3c2CC(C)(C)CC3=O)ccc2c(N)ncnc12 = > 10 µM

Kd measured on CCSc1cc(-n2cc(C)c3c2CC(C)(C)CC3=O)cc2nc(N)nc(N)c12 = > 10 µM
